Numbers sourced from patent US11685734B2.

Molecular target: Recombinant, full length human FLAG-tagged ATM (Homo sapiens (Human), UniProt Q13315)
Sequence (Q13315 whole entry): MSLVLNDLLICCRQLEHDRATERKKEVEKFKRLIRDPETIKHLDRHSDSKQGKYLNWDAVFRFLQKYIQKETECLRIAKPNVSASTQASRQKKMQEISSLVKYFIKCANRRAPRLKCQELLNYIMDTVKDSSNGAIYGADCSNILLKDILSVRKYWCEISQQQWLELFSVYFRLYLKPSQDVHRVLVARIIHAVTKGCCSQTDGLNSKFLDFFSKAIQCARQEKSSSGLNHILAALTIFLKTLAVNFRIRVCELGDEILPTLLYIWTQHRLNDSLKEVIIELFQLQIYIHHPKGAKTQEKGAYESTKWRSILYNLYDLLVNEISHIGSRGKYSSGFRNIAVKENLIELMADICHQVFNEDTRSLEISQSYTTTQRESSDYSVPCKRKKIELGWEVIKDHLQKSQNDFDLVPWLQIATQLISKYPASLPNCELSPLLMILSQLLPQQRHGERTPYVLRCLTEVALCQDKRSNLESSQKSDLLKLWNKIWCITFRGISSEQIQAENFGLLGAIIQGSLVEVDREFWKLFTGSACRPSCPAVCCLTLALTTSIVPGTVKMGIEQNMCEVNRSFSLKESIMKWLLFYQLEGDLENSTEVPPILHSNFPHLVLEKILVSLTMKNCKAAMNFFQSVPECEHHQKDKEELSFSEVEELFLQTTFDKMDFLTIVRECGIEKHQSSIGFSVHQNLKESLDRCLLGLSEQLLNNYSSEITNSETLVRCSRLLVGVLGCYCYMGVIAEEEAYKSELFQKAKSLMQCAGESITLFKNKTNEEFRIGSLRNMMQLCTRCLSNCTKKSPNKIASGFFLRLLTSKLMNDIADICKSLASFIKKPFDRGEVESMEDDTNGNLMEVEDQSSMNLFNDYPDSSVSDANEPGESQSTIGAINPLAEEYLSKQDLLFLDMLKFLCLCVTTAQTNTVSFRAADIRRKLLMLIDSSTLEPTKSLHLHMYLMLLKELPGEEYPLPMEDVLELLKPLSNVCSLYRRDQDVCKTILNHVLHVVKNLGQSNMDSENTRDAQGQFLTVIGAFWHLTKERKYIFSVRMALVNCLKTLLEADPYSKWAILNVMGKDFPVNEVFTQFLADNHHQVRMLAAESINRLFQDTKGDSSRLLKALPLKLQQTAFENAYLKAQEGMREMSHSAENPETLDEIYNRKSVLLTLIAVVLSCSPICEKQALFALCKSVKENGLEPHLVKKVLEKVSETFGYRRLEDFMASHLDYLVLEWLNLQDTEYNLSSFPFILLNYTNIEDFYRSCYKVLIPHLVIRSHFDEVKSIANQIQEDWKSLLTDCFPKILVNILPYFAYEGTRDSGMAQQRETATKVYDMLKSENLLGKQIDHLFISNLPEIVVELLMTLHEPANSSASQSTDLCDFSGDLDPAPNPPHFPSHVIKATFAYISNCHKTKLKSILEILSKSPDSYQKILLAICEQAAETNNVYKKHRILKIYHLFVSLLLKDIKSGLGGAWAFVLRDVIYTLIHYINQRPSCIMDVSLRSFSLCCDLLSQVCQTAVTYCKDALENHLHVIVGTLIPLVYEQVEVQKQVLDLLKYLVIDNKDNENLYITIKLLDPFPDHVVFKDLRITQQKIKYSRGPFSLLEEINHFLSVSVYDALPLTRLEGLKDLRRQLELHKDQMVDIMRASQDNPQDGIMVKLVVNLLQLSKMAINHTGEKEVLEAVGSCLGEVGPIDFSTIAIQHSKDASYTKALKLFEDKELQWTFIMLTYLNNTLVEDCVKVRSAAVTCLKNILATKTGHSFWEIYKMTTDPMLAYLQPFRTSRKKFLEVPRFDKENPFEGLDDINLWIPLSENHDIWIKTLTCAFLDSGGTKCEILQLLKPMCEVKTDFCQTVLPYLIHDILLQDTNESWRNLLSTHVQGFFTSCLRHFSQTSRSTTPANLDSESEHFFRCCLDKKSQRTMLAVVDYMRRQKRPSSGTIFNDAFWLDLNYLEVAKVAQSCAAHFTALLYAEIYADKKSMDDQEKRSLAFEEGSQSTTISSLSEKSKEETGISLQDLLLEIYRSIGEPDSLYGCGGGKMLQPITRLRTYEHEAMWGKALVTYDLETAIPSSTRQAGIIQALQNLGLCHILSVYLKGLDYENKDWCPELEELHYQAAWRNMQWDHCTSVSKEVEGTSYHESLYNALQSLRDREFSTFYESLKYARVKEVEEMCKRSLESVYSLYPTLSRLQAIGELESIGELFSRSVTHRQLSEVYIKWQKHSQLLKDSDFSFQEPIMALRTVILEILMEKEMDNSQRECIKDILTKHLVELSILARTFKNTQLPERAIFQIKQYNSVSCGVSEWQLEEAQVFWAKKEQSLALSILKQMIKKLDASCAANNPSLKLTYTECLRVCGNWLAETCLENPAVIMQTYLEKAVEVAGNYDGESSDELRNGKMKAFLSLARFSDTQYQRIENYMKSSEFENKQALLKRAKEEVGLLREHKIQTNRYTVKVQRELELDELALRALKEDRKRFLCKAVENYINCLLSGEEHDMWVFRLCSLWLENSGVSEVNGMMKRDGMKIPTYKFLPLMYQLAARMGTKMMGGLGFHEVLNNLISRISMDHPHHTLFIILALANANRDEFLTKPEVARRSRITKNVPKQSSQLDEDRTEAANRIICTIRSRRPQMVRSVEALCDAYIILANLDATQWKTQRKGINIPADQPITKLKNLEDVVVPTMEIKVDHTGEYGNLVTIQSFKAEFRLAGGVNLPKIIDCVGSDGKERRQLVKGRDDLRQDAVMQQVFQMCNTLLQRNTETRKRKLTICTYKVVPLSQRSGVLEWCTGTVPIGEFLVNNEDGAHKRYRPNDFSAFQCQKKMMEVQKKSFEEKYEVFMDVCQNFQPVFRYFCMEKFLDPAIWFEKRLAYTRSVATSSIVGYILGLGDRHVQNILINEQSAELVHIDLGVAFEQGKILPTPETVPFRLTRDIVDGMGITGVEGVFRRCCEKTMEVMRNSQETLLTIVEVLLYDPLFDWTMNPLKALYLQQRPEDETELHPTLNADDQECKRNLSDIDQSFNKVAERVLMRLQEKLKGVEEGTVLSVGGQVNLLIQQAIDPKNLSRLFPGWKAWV
Assay: ATM ELISA for p53 S15 phosphorylation
Settings: 0.75 nM ATM, 25 nM p53, 10 μM ATP, 30 min at 20° C.; read-out: ATM BIO IC50
pIC50: −log10 of the molar value.
measured endpoint: pIC50

[[record]]
molecule = "COc1ccccc1C[C@H]1[C@H](C)CCN1c1nc(N2CCOCC2)cc(=O)[nH]1"
readout_number = 8.15

[[record]]
molecule = "C[C@@H]1CN(c2cc(=O)[nH]c(N3CCCCC[C@@H]3Cc3ccsc3)n2)CCO1"
readout_number = 7.79

[[record]]
molecule = "O=c1cc(N2CCOCC2)nc(N2CCCC(F)(F)C[C@@H]2Cc2ccccc2)[nH]1"
readout_number = 7.99

[[record]]
molecule = "C[C@@H]1CCCN(c2cc(N3CCOCC3)cc(=O)[nH]2)[C@@H](Cc2ccccc2)C1"
readout_number = 7.32

[[record]]
molecule = "CC1C[C@H](Cc2ccccc2)N(c2cc(N3CCOCC3)cc(=O)[nH]2)C1 (single isomer, unassigned) [Example 100]"
readout_number = 7.48

[[record]]
molecule = "COC[C@@H](C)Oc1ccc(C[C@H]2CCCCCN2c2cc(N3CCOCC3)cc(=O)[nH]2)cc1"
readout_number = 7.68

[[record]]
molecule = "CC(C)(c1ccccc1)[C@H]1CCCN1c1nc(N2CCOCC2)cc(=O)[nH]1"
readout_number = 7.33

[[record]]
molecule = "COc1ccc(OC)c(C[C@H]2CCCCCN2c2cc(N3CCOCC3)cc(=O)[nH]2)c1"
readout_number = 7.73

